- System: BT-549
- experiment_description: normalised response (% of control), CellTiter-Glo; higher = more viable cells (100 = DMSO, 0 = benzethonium chloride kill control)
- measurement_context: incubation time: 72 h
test_readout: normalised response
Provide the measurement as a number trailed by its unit.

Below: 2 compounds and their reported normalised response.
CN1CCc2c(c3ccccc3n2Cc2ccc(C(=O)NO)cc2)C1 [Tubastatin A] (1 nM)	104%
Cc1c(N)nc([C@H](CC(N)=O)NC[C@H](N)C(N)=O)nc1C(=O)N[C@H](C(=O)N[C@H](C)[C@@H](O)[C@H](C)C(=O)N[C@H](C(=O)NCCc1nc(-c2nc(C(=O)NCCC[S+](C)C)cs2)cs1)[C@@H](C)O)[C@@H](OC1OC(CO)C(O)C(O)C1OC1OC(CO)C(O)C(OC(N)=O)C1O)c1cnc[nH]1 (stereo partly drawn) [Bleomycin] (1000 nM)	66.7%

Which measured normalised response value corresponds to CC[C@@H]1C(=O)N(C)c2cnc(Nc3ccc(C(=O)N[C@H]4CC[C@H](N5CCN(CC6CC6)CC5)CC4)cc3OC)nc2N1C(C)C [Volasertib] (100 nM) ? 25.9%
